This collection of values is drawn from paper PMC9739780.

assay: Pharmacokinetics after oral administration of LJF extract in CCl4-induced liver injury model rats; assay type: in vivo, Sprague-Dawley rats; conditions: male, Sprague-Dawley, rat; liver injury model group (M, CCl4), oral LJF ethanol extract 15.75 g/kg, plasma, mean ± SD, n = 6; read-out: Tmax
Can you tell me Tmax for the items I'm about to list?
Answers are plain numbers, in min.

Sample answers from the record:
{"Molecule": "O=C(/C=C/c1ccc(O)c(O)c1)O[C@@H]1[C@H](O)C[C@@](O)(C(=O)O)C[C@@H]1O (stereo in doubt)", "Tmax [min]": 8.4}
{"Molecule": "O=C(O)c1ccc(O)c(O)c1", "Tmax [min]": 10.8}

# next molecule below
The molecule O=C(/C=C/c1ccc(O)c(O)c1)O[C@H]1C[C@](O)(C(=O)O)C[C@@H](O)[C@H]1O showed Tmax equal to 11.4
